Entry source: patent US5399562A

Counter-ions that a name gives are not always drawn.
experimental.readout: pKi
Entry type: numeric. Quantity: pKi, the -log10 of concentration in molar units.

Query block: What pKi appears in the records for this compound with 5-HT3 receptor (Rattus norvegicus, UniProt P35563)? CN1[C@@H]2CC[C@H]1C[C@@H](NC(=O)N1C(=O)C3(CC3)c3ccccc31)C2 [Example 2, hydrate hydrochloride]
Sequence (P35563 24-483): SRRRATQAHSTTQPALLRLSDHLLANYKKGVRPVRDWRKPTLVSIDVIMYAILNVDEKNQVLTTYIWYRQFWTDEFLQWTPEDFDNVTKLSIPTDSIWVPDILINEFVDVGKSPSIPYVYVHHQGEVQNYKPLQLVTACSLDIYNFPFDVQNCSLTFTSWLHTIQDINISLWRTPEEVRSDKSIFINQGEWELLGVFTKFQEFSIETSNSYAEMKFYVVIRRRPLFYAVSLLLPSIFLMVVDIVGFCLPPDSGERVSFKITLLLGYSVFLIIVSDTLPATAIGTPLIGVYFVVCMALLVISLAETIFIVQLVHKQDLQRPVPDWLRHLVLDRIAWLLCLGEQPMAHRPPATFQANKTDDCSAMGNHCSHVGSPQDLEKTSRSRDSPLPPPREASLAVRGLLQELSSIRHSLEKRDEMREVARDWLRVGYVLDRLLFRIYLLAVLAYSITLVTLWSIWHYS
Result block: 8.39

Query block: What pKi appears in the records for this compound with 5-HT3 receptor (Rattus norvegicus, UniProt P35563)? CN1[C@@H]2CC[C@H]1C[C@@H](NC(=O)N1C(=O)C(C)(C)c3ccccc31)C2 [Example 1, hydrochloride hydrate]
Result block: 8.40

###

- experimental.system: 5-HT4 receptor (Rattus norvegicus)
- Sequence (Q62758 whole entry): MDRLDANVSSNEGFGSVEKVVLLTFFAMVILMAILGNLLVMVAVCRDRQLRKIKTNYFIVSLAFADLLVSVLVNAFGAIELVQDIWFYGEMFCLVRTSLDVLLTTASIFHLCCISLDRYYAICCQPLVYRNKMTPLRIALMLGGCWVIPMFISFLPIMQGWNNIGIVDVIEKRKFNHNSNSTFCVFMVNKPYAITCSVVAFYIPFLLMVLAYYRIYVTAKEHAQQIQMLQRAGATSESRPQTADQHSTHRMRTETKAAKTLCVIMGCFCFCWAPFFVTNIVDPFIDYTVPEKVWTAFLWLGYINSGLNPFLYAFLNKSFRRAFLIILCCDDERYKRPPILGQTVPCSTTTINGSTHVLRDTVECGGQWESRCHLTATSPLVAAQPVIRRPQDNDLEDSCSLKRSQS
- test.method.notes: cell-based
- cond: rat esophagus TMM contracted with carbachol (3 μM), 37° C., cumulative addition; read-out: 5-HT4 Agonism (Rat TMM) In Vitro Assay: EC50 values
Where a name gives a salt, the structure may show the parent alone.
Provide the recorded pEC50 for the entries that follow.
Entry type: numeric. Quantity: pEC50, the -log10 of concentration in molar units.

Query block: Tell me the measured pEC50 of O=C(N[C@H]1[C@@H]2CC3C[C@H]1CN(C3)C2)N1C(=O)C2(CC2)c2ccccc21 [Example 4, monohydrochloride] , please.
Result block: 5.60

Query block: Tell me the measured pEC50 of O=C(NCCC12CCCN1CCC2)N1C(=O)C2(CC2)c2ccccc21 [Example 7, monohydrochloride] , please.
Result block: 5.10

Query block: Tell me the measured pEC50 of CN1[C@@H]2CC[C@H]1C[C@@H](NC(=O)N1C(=O)C(C)(C)c3ccccc31)C2 [Example 1, hydrochloride hydrate] , please.
Result block: 5.92

###

- experimental.system: UniProt:Q62758
- test.method.notes: cell-based
- cond: rat esophagus TMM contracted with carbachol (3 μM), 37° C., cumulative addition; read-out: 5-HT4 Agonism (Rat TMM) In Vitro Assay: EC50 values
Where a name gives a salt, the structure may show the parent alone.
experimental.readout: pEC50
Entry type: numeric. Quantity: pEC50, the -log10 of concentration in molar units.

Query block: Tell me the measured pEC50 of O=C(N[C@@H]1[C@@H]2CC3C[C@H]1CN(C3)C2)N1C(=O)C2(CC2)c2ccccc21 [Example 3, monohydrochloride] , please.
Result block: 5.65

Query block: Tell me the measured pEC50 of CN1[C@@H]2CC[C@H]1C[C@@H](NC(=O)N1C(=O)C3(CC3)c3ccccc31)C2 [Example 2, hydrate hydrochloride] , please.
Result block: 6.10
